Assay: NCI Yeast Anticancer Drug Screen. Data for the sgs1 mgt1 strain (AID 161);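 also: 0% = growth of cultures given vehicle only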
Conditions: S. cerevisiae sgs1 mgt1 strain, at 50.0 µM (retest, dose inferred, filed as 5.0), active compounds read high
This is part of a sample that, as a whole, favours compounds with a hit. Of some 79,000 tested, about 15% had one in any assay.
Readout: growth inhibition (%)
Give just the numeric value; % need not be written.

CS(=O)(=O)C(c1nc2nnc(NC(=O)Nc3ccc(Cl)cc3)n2[nH]c1=O)c1nc2nnc(NC(=O)Nc3ccc(Cl)cc3)n2[nH]c1=O = -7
ON=C1Cc2ccccc2-c2ccccc2C1 = 4
CC1C/C(=N\N(C)C)C(C#N)(C#N)C1(C#N)C#N (configuration not stated) = 97
COc1ccc2nc3cc(Cl)ccc3c(Nc3ccc(S(N)(=O)=O)cc3)c2c1 = 5
O/N=C(/C[N+]12CN3CN(CN(C3)C1)C2)c1ccc(I)cc1 = 55

QUERY: Name the recorded growth inhibition of the item `O=C(Nc1c(Cl)cccc1Cl)Oc1c(Br)cc(Br)cc1Br` in your answer.
RESULT: 98

QUERY: Recall and state the measured growth inhibition for `Oc1c(N2CCOCC2)cc(-c2cc(N3CCOCC3)c(O)c3ccccc23)c2ccccc12` .
RESULT: 9

QUERY: Consider the molecule `C[n+]1c(/C=C/c2cccc([N+](=O)[O-])c2)sc2ccccc21` and give its recorded growth inhibition.
RESULT: 98

QUERY: Consider the molecule O=C(O)/C=C/CCC1SCC2NC(=O)NC21 (configuration not stated) and give its recorded growth inhibition.
RESULT: 96

QUERY: Look up and state reported growth inhibition for `CC(C)(C)CC(C)(C)c1ccc(O)c(Cl)c1`
RESULT: 50

QUERY: Let me know recorded growth inhibition for Cc1ccc(OCC2CO2)c(Br)c1 (configuration not stated) , thanks.
RESULT: 71

QUERY: Determine from records and report growth inhibition for `COC(=O)C(CBr)CBr`
RESULT: 98

###

Assay: NCI Yeast Anticancer Drug Screen. Data for the bub3 strain (AID 167)
Conditions: S. cerevisiae bub3 mutant strain, at 50.0 µM
About 79,000 compounds went through this panel and 15% of them were active in at least one assay; those are over-represented in the sample as a whole. Activity calls are given as the source filed them. Rule as the data show it: active = growth inhibition above about 70%; inactive = the rest.
Hi! Could you answer with just one of these? y (active), n (inactive)

Completed entries (count: 4):
Oc1c(Br)cc(Cl)cc1Br = y
COc1ccc(C)cc1NC(=O)ON=C1CCCCC1 = y
COc1nc(NC2OCC(O)C(O)C2O)c(Cl)c(=O)n1C (stereo unspecified) = n
CC(=O)CC(=O)OCc1ccccc1 = y

QUERY: Tell me the assay call for `O=C(c1ccccc1)c1ccc(O)cc1O` please.
RESULT: n

QUERY: Hey, what did the test say about O=C1CCC(Cc2ccccc2Br)C(=O)N1 (stereo unspecified) ?
RESULT: n

QUERY: Which outcome was assigned to `CCN(CC)CCNc1ccc(C)c2sc3c(OC)cccc3c(=O)c12` in this test?
RESULT: n

###

Experiment: NCI Yeast Anticancer Drug Screen. Data for the mec2-1 strain (AID 157)
Conditions: S. cerevisiae mec2-1 strain, at 5.0 µM (retest, dose inferred, filed as 0.5), active compounds read high
Method: Growth inhibition of yeast strains with defined genetic alterations is measured as a screen for potential anti-cancer activity. Selected strains with alterations in DNA damage repair or cell cycle control were exposed to compounds and growth inhibition was measured relative to vehicle treated controls. The strain used in this assay is mec2-1
This is part of a sample that, as a whole, favours compounds with a hit. Of some 79,000 tested, about 15% had one in any assay.
# growth inhibition listing for each entry below
The reply should be a number in %, with the unit left off.

QUERY: Determine from records and report growth inhibition for `O=C(c1ccccc1)c1ccc2c(c1)CCCC2`
RESULT: -12

QUERY: Provide measured growth inhibition value, entry: `CCOC(=O)/C(C#N)=C/c1ccccc1Br`
RESULT: -19
